compounds and their reported pEC50
tested-target: human GPR119 receptor (G protein-coupled receptor 119) (Homo sapiens, UniProt Q8TDV5)
Sequence (Q8TDV5 whole entry): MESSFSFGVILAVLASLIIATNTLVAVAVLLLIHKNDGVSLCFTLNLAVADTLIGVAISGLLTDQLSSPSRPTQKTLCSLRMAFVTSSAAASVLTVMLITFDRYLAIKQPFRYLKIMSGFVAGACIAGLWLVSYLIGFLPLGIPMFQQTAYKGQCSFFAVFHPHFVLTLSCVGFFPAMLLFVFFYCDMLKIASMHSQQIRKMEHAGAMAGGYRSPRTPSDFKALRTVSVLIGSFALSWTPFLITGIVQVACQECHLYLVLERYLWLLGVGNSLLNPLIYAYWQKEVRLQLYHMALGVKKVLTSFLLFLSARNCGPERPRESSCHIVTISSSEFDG
test: HTRF cAMP accumulation assay, stable HEK293 cells
pEC50: −log10 of the molar value.

- compound: "CCCCCCCC/C=C\\CCCCCCCC(=O)NCCO [Oleoyl ethanolamide]"
  pEC50: 5.12
- compound: "CCCCC/C=C\\C/C=C\\CCCCCCCC(=O)NCCO [Linoleoyl ethanolamide]"
  pEC50: 5.09
- compound: "CC/C=C\\C/C=C\\C/C=C\\C/C=C\\C/C=C\\C/C=C\\CCC(=O)NCCO [Docosahexaenoyl ethanolamide]"
  pEC50: 4.20
- compound: "CCCCC/C=C\\C/C=C\\C/C=C\\CCCCCCC(=O)NCCO [Dihomo-γ-linolenoyl ethanolamide]"
  pEC50: 4.59
- compound: "CCCCCCCC/C=C\\CCCCCCCC(=O)NCCc1ccc(O)c(O)c1"
  pEC50: 4.26
- compound: "CCCCCCCCCCCCCCCC(=O)NCCO [Palmitoyl ethanolamide]"
  pEC50: 4.99
- compound: "CC/C=C\\C/C=C\\C/C=C\\C/C=C\\C/C=C\\CCCC(=O)NCCO [Eicosapentaenoyl ethanolamide]"
  pEC50: 4.18
- compound: "CC(C)c1noc(C2CCN(c3ncnc(Nc4ccc(S(C)(=O)=O)cc4F)c3[N+](=O)[O-])CC2)n1"
  pEC50: 7.96
- compound: "CCCCC/C=C\\C/C=C\\C/C=C\\C/C=C\\CCCCCC(=O)NCCO"
  pEC50: 4.40
- compound: "CC(C)(C)OC(=O)N1CCC(OCc2nc(-c3ccncc3)no2)CC1"
  pEC50: 5.12
- compound: "CCCCCCCC/C=C\\CCCCCCCC(N)=O [Oleamide]"
  pEC50: 4.37
